Where do the numbers come from? From the supplement of paper PMC10567573.

B1: TRIM63 (parent)
chain: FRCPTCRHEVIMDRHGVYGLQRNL

# Variants of: B1
# MEASUREMENT PROTOCOL: protein stability index of a GFP-peptide fusion (GPS, HEK-293T) (PSI 1-6); higher = more stable;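 further: lentivirally expressed fusions sorted by FACS into six bins by GFP to DsRed ratio, PSI derived from sequencing read proportions per bin multiplied by bin number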
# SETTINGS: c terminus: a fixed tail appended
ASSAY READOUT: protein stability index

> print(dat)
     var  experimental.value
 1  N23K                2.04
 2  R22V                2.43
 3   F1G                1.38
 4  Q21G                2.42
 5  L24D                 2.6
 6   T5K                2.38
 7  G19W                3.11
 8  Y18M                3.62
 9  G16Y                2.49
10  L20Y                1.99
11  M12H                2.06
12  Y18Q                3.53
13  Y18G                2.31
14   R2H                2.17
15   C6G                2.31
16  I11K                1.77
17  V17E                1.43
18  L24N                1.85
19   R7A                2.63
20   H8I                2.11
21   R7N                   3
22  L24W                 2.4
23  D13Q                3.89
24  N23G                2.82
25   T5M                2.28
26  G19H                2.51
27  H15C                2.32
28  D13W                2.09
29  Q21W                2.31
30   E9T                2.34
31  Y18S                2.62
32   F1P                3.34
33   P4F                3.47
34  R14Q                2.52
35  N23C                 2.2
